Molecular target: Prostaglandin E2 receptor EP2 subtype (Homo sapiens)
Assay: EP2 receptor modulators, dose response, cell-based, human EP2, PGE2 EC50 shift (AID 1421)
Conditions: EP2-expressing cells, PGE2 EC50 shift by compound; measured here: PGE2 EC50 at 6.7 uM compound
List of PGE2 EC50 with compound values.

| COMPOUND | PGE2 EC50 with compound [nM] |
| --- | --- |
| CN(N=O)c1ccc(O)c(O)c1 | 1.26 |
| CC(C)c1nc(SCc2c(F)cccc2Cl)c2c(=O)n(C)c(=O)n(C)c2n1 | 0.55 |
| Cc1cc(Nc2ccc(Br)cc2)n2nc(C)nc2n1 | 1.06 |
| CCCCc1ccc(-n2c(Cc3cccs3)n[nH]c2=S)cc1 | 0.8 |
| CCCn1cnc2sc(CC)cc2c1=O | 1.25 |
| O=c1c2ccccc2c(-c2ccc(Br)cc2)nn1Cc1ccccc1 | 0.78 |
| O=C(NCCC1=CCCCC1)c1cccc2c1C(=O)N(C1CCCCC1)C2 | 1.18 |
| Cc1nn2c(N3CCCC3)cc(C(C)C)nc2c1-c1ccccc1 | 0.84 |
| COCC(=O)Nc1sc2c(c1C(=O)OC)CCC(C)C2 (stereo not drawn) | 1.32 |
| CCCn1c(-c2cccs2)nc2c1c(=O)[nH]c(=O)n2Cc1ccccc1 | 2.78 |
| Oc1ccc(/C=N/N(Cc2ccccc2)c2ccccc2)cc1 | 0.76 |
| COC(=O)c1sc2[nH]c(=S)n(N)c(=O)c2c1C | 1.06 |
| COc1cc(S(=O)(=O)N(Cc2cccnc2)Cc2ccco2)ccc1-n1cnnn1 | 1.45 |
| CC(C)Cc1nc(N2CCCCC2)c(C#N)c2c1CCC2 | 1.37 |
| CCOC(=O)c1ccccc1NC(=O)C(C)Oc1ccccc1 (stereo not drawn) | 1.35 |
| CN(C)c1nc(N2CCOCC2)nc(N(c2ccccc2)c2ccccc2)n1 | 0.61 |
| Cc1nc2ccccc2c(-c2ccccc2)c1C(=O)c1ccccc1 | 2.55 |
| CC1=CC(C)(C)N(S(=O)(=O)c2ccc(F)cc2)c2ccc(C)cc21 | 0.8 |
| CCc1cc(-c2[nH]ncc2-c2ccc3c(c2)OCO3)c(O)cc1O | 1.31 |
| CC(=O)N(Cc1cccs1)Cc1cc2ccc(C)c(C)c2nc1Cl | 1.01 |
| CN(C)Cc1ccc(F)cc1Sc1cc(Cl)ccc1Cl | 0.77 |
| O=C(c1ccc(Cl)cc1)c1oc2ccccc2c1CS(=O)(=O)c1ccccc1 | 2.88 |
| CSc1nc(Sc2ccccc2Cl)c2ccccc2n1 | 0.7 |
| S=c1[nH]nc(CSc2nc3ccccc3s2)n1Cc1ccccc1 | 0.72 |
| COc1cc2cc(Br)cc(Br)c2nc1C | 2.62 |
| CCCCOc1ccccc1C1C(C(=O)OC)=C(C)N(C)C(C)=C1C(=O)OC | 0.69 |
| O=C(Nc1ccccc1N1CCCCC1)c1cnccn1 | 0.93 |
| COc1ccc(OC)c(C2=Nn3c(nnc3-c3ccco3)SC2)c1 | 0.93 |
| CCOC(=O)c1c(NC(=O)c2cccnc2)sc(C)c1C | 1.25 |
| COc1cc(C=O)ccc1OC(=O)c1ccc(C(C)C)cc1 | 1.44 |
| Cc1ccc(C(=O)c2c(NC(=O)c3ccncc3)sc3c2CCCC3)cc1 | 0.66 |
| COc1ccc(C)cc1NC(=O)C1CC(=O)OC12CCCCC2 (stereo not drawn) | 0.67 |
| CCC1CCc2c(sc3ncnc(N4CCOCC4)c23)C1 (stereo not drawn) | 0.81 |
| Cc1cc2c3c(c1)C1(SCC(=O)N1c1ccc(F)cc1)C(=O)N3C(C)(C)CC2C (stereo not drawn) | 2.59 |
| COc1ccc(-c2noc(-c3ccccc3C(=O)Nc3cccnc3)n2)cc1 | 1.02 |
| S=c1[nH]nc(-c2ccco2)n1/N=C/c1ccc(Cl)cc1Cl | 1.06 |
| CN(CC(=O)Nc1ccccc1-c1ccccc1)Cc1ccccc1Cl | 0.95 |
| CCC1Oc2ccc(C)cc2N(Cc2cccc(C)c2)C1=O (stereo not drawn) | 1.24 |
